target: EGFR on the surface of human tumour cells (A431, H292) (human, UniProt P00533 25-1210); assay: cell-based or functional assay
Recorded endpoint: % inhibition of EGFR phosphorylation at 100 nM binder, cell-based assay (%)

>>> numeric_readout("E109 (designed binder) 10Fn3 domain: MGVSDVPRDLEVVAATPTSLLISWDAPTSRYQYYRITYGETGGNSPVQEFTVPHDLVTATISGLKPGVDYTITVYAVTDYKPHADGPHTYHESPISINYRTEIDKPSQ")
90.9
>>> numeric_readout("E108 (designed binder) 10Fn3 domain: MGVSDVPRDLEVVAATPTSLLISWDAPAVTYQYYRITYGETGGNSPVQEFTVPGGVRTATISGLKPGVDYTITVYAVTDYKPHADGPHTYHESPISINYRTEIDKPSQ")
80
>>> numeric_readout("E103 (designed binder) 10Fn3 domain: MGVSDVPRDLEVVAATPTSLLISWTPANKSYQYYRITYGETGGNSPVQEFTVPGGVRTATISGLKPGVDYTITVYAVTNMMHVEYSEYPISINYRTEIDKPSQ")
76.3
>>> numeric_readout("E107 (designed binder) 10Fn3 domain: MGVSDVPRDLEVVAATPTSLLISWDSGRGSYQYYRITYGETGGNSPVQEFTVPYDVYTATISGLKPGVDYTITVYAVTDMMHVEYTEHPISINYRTEIDKPSQH")
75.8
